- measurement-protocol: Cytotoxicity was measured as ratio of its IC50 value to that of compound 13a
- Format: functional
Listing: Ratio of selected molecules
measure-name: Ratio

# molecule, result
records = [
    ("CC(=O)O[C@H]1C(=O)[C@@]2(C)[C@H]([C@H](OC(=O)c3ccccc3)[C@]3(O)C[C@H](OC(=O)[C@@H](O)[C@H](NC(=O)c4ccccc4)c4ccccc4)C(C)=C1C3(C)C)[C@]1(OC(C)=O)CO[C@@H]1C[C@@H]2O", 54),
    ("CC(=O)O[C@H]1C(=O)[C@@]2(C)[C@H]([C@H](OC(=O)c3ccccc3)[C@]3(O)C[C@H](OC(=O)[C@H](O)[C@@H](NC(=O)OC(C)(C)C)c4ccccc4)C(C)=C1C3(C)C)[C@]1(OC(C)=O)CO[C@@H]1C[C@@H]2O", 1.3),
    ("CC(=O)O[C@@]12CO[C@@H]1C[C@H](O)[C@@]1(C)C(=O)[C@H](O)C3=C(C)[C@@H](OC(=O)C(NC(=O)OC(C)(C)C)C(O)c4ccccc4)C[C@@](O)([C@@H](OC(=O)c4ccccc4)[C@H]21)C3(C)C (stereo not given in full)", 31),
    ("CC(=O)O[C@@]12CO[C@@H]1C[C@H](OC(=O)C(N)Cc1ccccc1)[C@@]1(C)C(=O)[C@H](O)C3=C(C)[C@@H](OC(=O)C(O)C(NC(=O)OC(C)(C)C)c4ccccc4)C[C@@](O)([C@@H](OC(=O)c4ccccc4)[C@H]21)C3(C)C (stereo not given in full)", 1),
    ("CC(=O)O[C@@]12CO[C@@H]1C[C@H](O)[C@@]1(C)C(=O)[C@H](O)C3=C(C)[C@@H](OC(=O)C(O)C(NC(=O)c4ccc(S(=O)(=O)O)cc4)c4ccccc4)C[C@@](O)([C@@H](OC(=O)c4ccccc4)[C@H]21)C3(C)C (stereo not given in full)", ">31"),
]

###

Listing: Ratio of selected compounds
- measurement-protocol: Ratio of the concentration of compound leading to a 50% inhibition of the rate of pig brain microtubule disassembly to that of compound 13a was determined
- Assay type: functional

# compound, Ratio
measured = [
    ("CC(=O)O[C@H]1C(=O)[C@@]2(C)[C@H]([C@H](OC(=O)c3ccccc3)[C@]3(O)C[C@H](OC(=O)[C@H](O)[C@@H](NC(=O)c4ccccc4)c4ccccc4)C(C)=C1C3(C)C)[C@]1(OC(C)=O)CO[C@@H]1C[C@@H]2O [PACLITAXEL]", 2),
    ("CC(=O)O[C@H]1C(=O)[C@@]2(C)[C@H]([C@H](OC(=O)c3ccccc3)[C@]3(O)C[C@H](OC(=O)[C@H](NC(=O)c4ccccc4)[C@@H](O)c4ccccc4)C(C)=C1C3(C)C)[C@]1(OC(C)=O)CO[C@@H]1C[C@@H]2O", 20),
    ("CC(=O)O[C@@]12CO[C@@H]1C[C@H](OC(=O)C(N)Cc1ccccc1)[C@@]1(C)C(=O)[C@H](O)C3=C(C)[C@@H](OC(=O)C(O)C(NC(=O)OC(C)(C)C)c4ccccc4)C[C@@](O)([C@@H](OC(=O)c4ccccc4)[C@H]21)C3(C)C (some centres undefined)", 2),
    ("CC(=O)O[C@H]1C(=O)[C@@]2(C)[C@H]([C@H](OC(=O)c3ccccc3)[C@]3(O)C[C@H](OC(=O)[C@@H](O)[C@H](NC(=O)c4ccccc4)c4ccccc4)C(C)=C1C3(C)C)[C@]1(OC(C)=O)CO[C@@H]1C[C@@H]2O", 9),
]

Source listed as ChEMBL document CHEMBL1125650.
